System: Male Institute of Cancer Research (ICR) mice
Experiment: Tail-flick test, blockade of nicotine-induced antinociception
Format: in vivo
Conditions: Mus musculus, 5 min, mice; pretreatment 15 min before nicotine 2.5 mg/kg s.c.; tested 5 min after nicotine; read-out: AD50 Tail-flick
ED50 less than 0.3 mg/kg is y; ED50 greater than or equal to 0.3 mg/kg is n.

Asked: Item C[C@@H]1NC(C)(C)CO[C@@]1(O)c1ccc(-c2ccccc2)cc1 : ED50 beneath 0.3 mg/kg, strictly?
Given back: y

Asked: Item C[C@@H]1NC(C)(C)CO[C@@]1(O)c1cccc2ccccc12 : ED50 beneath 0.3 mg/kg, strictly?
Given back: y

Asked: Item COc1ccc([C@]2(O)OCC(C)(C)N[C@H]2C)cc1 : ED50 beneath 0.3 mg/kg, strictly?
Given back: y

Asked: Item C[C@@H]1NC(C)(C)CO[C@@]1(O)c1cccc([N+](=O)[O-])c1 : ED50 beneath 0.3 mg/kg, strictly?
Given back: n

Asked: Item C[C@@H]1N(C)C(C)(C)CO[C@@]1(O)c1ccc(Cl)cc1 : ED50 beneath 0.3 mg/kg, strictly?
Given back: n
